# pKi per entry for UniProt Q01726
# Sequence (Q01726 whole entry): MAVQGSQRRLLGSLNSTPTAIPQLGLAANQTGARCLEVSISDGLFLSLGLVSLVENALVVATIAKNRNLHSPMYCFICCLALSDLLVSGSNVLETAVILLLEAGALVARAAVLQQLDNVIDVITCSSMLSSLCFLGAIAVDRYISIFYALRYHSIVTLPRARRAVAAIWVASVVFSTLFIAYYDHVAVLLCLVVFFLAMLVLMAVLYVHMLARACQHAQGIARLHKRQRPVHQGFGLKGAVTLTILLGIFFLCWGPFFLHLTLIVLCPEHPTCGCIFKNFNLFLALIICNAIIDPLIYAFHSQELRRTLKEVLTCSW
pKi: −log10 of the molar value.

>  <given smiles>
NC(N)=NCCC[C@@H](CN1CCCCC1)NC(=O)[C@H](N)Cc1ccc(F)cc1

>  <pKi>
< 4.00

$$$$

For every record below, what is its pKi?
1. N=C(N)NCCC[C@H](NC(=O)[C@H](N)Cc1ccc(F)cc1)C(=O)N1CCCCC1
2. N[C@H](Cc1ccc(Cl)cc1)C(=O)N1CCC(Cn2cncn2)(C2CCCCC2)CC1

< 4.00
< 5.00
